Hello, the source for this data is patent US7368576B2, in case you need it.

Molecular target: PepT1 (Oryctolagus cuniculus)
Construct: expressed in transfected cells; host or cells: Pichia pastoris cells expressing PepT1 (per the assay description)
Sequence (P36836 whole entry): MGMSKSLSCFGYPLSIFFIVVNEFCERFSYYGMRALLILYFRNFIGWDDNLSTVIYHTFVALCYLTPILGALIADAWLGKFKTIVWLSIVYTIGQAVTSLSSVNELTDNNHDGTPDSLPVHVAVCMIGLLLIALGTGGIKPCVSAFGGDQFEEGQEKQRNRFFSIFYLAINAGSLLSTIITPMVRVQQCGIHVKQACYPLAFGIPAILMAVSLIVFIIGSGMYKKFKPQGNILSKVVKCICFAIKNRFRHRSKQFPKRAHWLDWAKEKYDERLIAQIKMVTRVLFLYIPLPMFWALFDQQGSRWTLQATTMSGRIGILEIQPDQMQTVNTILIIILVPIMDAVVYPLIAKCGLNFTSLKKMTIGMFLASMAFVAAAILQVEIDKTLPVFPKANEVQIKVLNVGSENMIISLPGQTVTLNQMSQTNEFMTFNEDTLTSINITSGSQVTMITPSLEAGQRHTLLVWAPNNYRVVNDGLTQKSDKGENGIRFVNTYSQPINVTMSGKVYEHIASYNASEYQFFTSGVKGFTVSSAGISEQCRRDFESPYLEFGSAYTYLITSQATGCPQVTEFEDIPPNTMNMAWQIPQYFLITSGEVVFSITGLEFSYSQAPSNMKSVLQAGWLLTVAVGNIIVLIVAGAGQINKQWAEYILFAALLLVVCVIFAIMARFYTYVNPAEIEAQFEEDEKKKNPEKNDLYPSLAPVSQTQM
Assay: Inhibition of 3H-D-Phe-Ala binding to PepT1-expressing P. pastoris cells
Excerpt: Side chain-modified glutamyl thiazolidines having a structure H-Glu(X)-Thia were synthesised, with polyethylene glycol or glycine oligomers of various chain lengths being used as X (see Method A of example for description of synthesis). The binding characteristics of those derivatives and their transportability by the peptide transporter PepT1 were investigated.
property label: EC50 (mM)
The reply should contain only the number, in mM.

*Q* Request: EC50, test system PepT1 (Oryctolagus cuniculus), entry NC(CCC(=O)NO)C(=O)N1CCSC1 (centres unmarked) [H-Glu(NHOH)-thiazolidine]
*A* 3.18

*Q* Request - read-out EC50 | tested on PepT1 (Oryctolagus cuniculus) | compound N[C@@H](CCC(=O)O)C(=O)N1CCSC1 [H-Glu-thiazolidine]
*A* 1.1

*Q* GET /values?readout=EC50&system=PepT1 (Oryctolagus cuniculus)&item= N[C@@H](CCC(=O)NCC(=O)NCC(=O)NCC(=O)O)C(=O)N1CCSC1 [H-Glu(Gly3)-Thia]
*A* 8.54

*Q* Item CCC(C)C(N)C(=O)N1CCSC1 (centres unmarked) [H-Ile-Thia] with PepT1 (Oryctolagus cuniculus) - EC50?
*A* 0.98
